Cited source: PubChem BioAssay AID179

Tested on: CEM cells HIV-1 protection, formazan growth assay
Assay: NCI AIDS Antiviral Assay
Method: The ability of compounds to protect human CEM cells from HIV-1 infection is measured as a screen for new compounds capable of inhibiting the HIV virus. Five concentrations of drug were tested on uninfected and infected cells and cell growth was measured using a soluble formazan assay. […] Compounds that provided at least 50% protection were retested. Compounds that provided at least 50% protection on retest were listed as moderately active. […]

compound: COc1ccc(Cn2c3ccc([N+](=O)[O-])cc3c(=O)n2Cc2ccccn2)cc1
target.or.system: CEM cells HIV-1 protection, formazan growth assay
EC50: > 200 µM

compound: CC(C)C1=CC2C3C(=O)NC(=O)C3C1C1C3C(=O)NC(=O)C3C21 (centres undefined)
target.or.system: CEM cells HIV-1 protection, formazan growth assay
EC50: > 794 µM

compound: CC(C)CCCC(C)[C@H]1CC[C@H]2[C@@H]3CC[C@H]4C[C@@H](CCC=C(c5cc(Cl)c(OCc6cccc([N+](=O)[O-])c6)c(C(=O)O)c5)c5cc(Cl)c(OCc6cccc([N+](=O)[O-])c6)c(C(=O)O)c5)CC[C@]4(C)[C@H]3CC[C@]12C (some centres undefined)
target.or.system: CEM cells HIV-1 protection, formazan growth assay
EC50: 95.5 µM

compound: Cc1cnc(C)c(-c2cc3ccccc3[nH]2)n1
target.or.system: CEM cells HIV-1 protection, formazan growth assay
EC50: > 32.4 µM

compound: CN1C/C(=C\c2cccs2)C(O)/C(=C/c2cccs2)C1 (centres undefined)
target.or.system: CEM cells HIV-1 protection, formazan growth assay
EC50: > 200 µM

compound: N#Cc1cnc(N)nc1NCC1(CO)CC(CCc2ccccc2)C1 (centres undefined)
target.or.system: CEM cells HIV-1 protection, formazan growth assay
EC50: > 200 µM

compound: O=[N+]([O-])c1nccn1CCC[n+]1ccc2ccccc2c1
target.or.system: CEM cells HIV-1 protection, formazan growth assay
EC50: > 100 µM

compound: CCCCCCCCCCCCCC/C(=C/OCC[N+](C)(C)C)OC(C)=O (tested in a mixture with another compound)
target.or.system: CEM cells HIV-1 protection, formazan growth assay
EC50: > 200 µM

compound: OCC1CC2c3[nH]c4ccccc4c3CCN2C1 (centres undefined)
target.or.system: CEM cells HIV-1 protection, formazan growth assay
EC50: > 282 µM

----------
tested on: CEM cells HIV-1 protection, formazan growth assay; test: NCI AIDS Antiviral Assay;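 active means compounds giving half or more protection of infected cells from virus-caused growth loss, again on retest; inactive means the rest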
Possible outcomes: active, inactive

compound: N#C/C(=C\c1ccc(O)c(O)c1)C(=O)Nc1ccc(C(=O)O)cc1
classification: inactive
//
compound: CC1=C(C(=O)Nc2cc(F)c(F)cc2F)C(c2ccc3c(c2)OCO3)C(C(=O)Nc2cc(F)c(F)cc2F)=C(C)N1
classification: inactive
//
compound: CCOC(=O)Nc1nc2cc(C(=O)OCC)n(C)c2s1
classification: inactive
//
compound: COS(=O)(=O)OC1(SC)C=C(c2ccccc2)SS1 (centres undefined)
classification: inactive
//
compound: Cc1ccc2oc(=O)c(C#N)c(/C=C/c3ccc(Cl)cc3)c2c1
classification: inactive
//
compound: O=c1oc(-c2ccccc2NS(=O)(=O)c2ccccc2)nc2cc(Cl)ccc12
classification: inactive
//
compound: CCOP(=O)(OCC)/C(C#N)=C/c1cc(OC)ccc1OC
classification: inactive
//
compound: O=C(O)c1cc2cc([N+](=O)[O-])ccc2oc1=O
classification: inactive
//
compound: CN1N=C(c2ccncc2)OC1c1cccc(F)c1 (centres undefined)
classification: inactive
//
compound: COc1ccc(C2OC(N)=C(C#N)C3=C2C(C)CCC3)cc1OC (centres undefined)
classification: active
//
compound: COc1ccc(S(=O)(=O)OC)cc1C(=O)c1cc(S(=O)(=O)OC)ccc1OC
classification: inactive
//
compound: O=S1(=O)CC2C3CC(Oc4ccccc4)C(C3)C2C1 (centres undefined)
classification: inactive
//
compound: O=c1[nH]nc(Cc2ccccc2)n1-n1cnnc1
classification: inactive
//
compound: CCCCN(CCCC)c1c([N+](=O)[O-])c(=O)nc2ccccn12
classification: inactive
//
compound: CN(C)Cc1cc(N=Nc2ccccc2Cl)cc(CN(C)C)c1O
classification: inactive
//
compound: S=c1[nH]nc2nc(Nc3ccccc3)nc(Nc3ccccc3)n12
classification: inactive
//
compound: O=C(CCc1ccc(O)cc1)NCCCNC(=O)CCc1ccc(O)cc1
classification: inactive
//
compound: COc1ccc(NC(=O)c2c(NC(=O)CN3CCOCC3)c(C#N)c3n2CCC3)cc1
classification: inactive
//
compound: COC1/C=C/OC2(C)Oc3c(C)c(O)c4c(O)c(c(/C=N/N5C(C)CN(Cc6cccc(C#N)c6)CC5C)c(O)c4c3C2=O)NC(=O)/C(C)=C\C=C\C(C)C(O)C(C)C(O)C(C)C(OC(C)=O)C1C (centres undefined)
classification: inactive
//
compound: C/C(=N\NC(=S)N1CCC(C2CCN(C(=S)N/N=C(\C)c3ccccn3)CC2)CC1)c1ccccn1
classification: inactive
//
compound: CC(C)(C)c1cc(C(=O)[O-])c([OH2+])c(C(C)(C)C)c1.CC(C)(C)c1cc(C(=O)[O-])c([OH2+])c(C(C)(C)C)c1.[Mn+2]
classification: inactive
//
compound: CSc1ccc(-c2cn3ccsc3n2)c(O)c1
classification: inactive
//
compound: CC(=O)C(=Cc1ccc(N(C)C)cc1)C(C)=O
classification: inactive
//
compound: CCCN(CCC)C(=O)c1c(Cl)c2cccnc2n2c(C)cnc12
classification: inactive
//
compound: COc1cc(N(CCC#N)CCC#N)ccc1/C(N=Nc1ccc(Cl)cc1)=N/NC(=O)c1cc(Br)ccc1O
classification: inactive
//
compound: O=C(/C(=C(/Br)I)c1ccccc1)c1ccccc1
classification: inactive
//
compound: CC/C=C\C/C=C\C/C=C\CCCCCCCC(=O)NC(CCC(N)=O)C(=O)O (centres undefined)
classification: inactive
//
compound: Nc1ccccc1C(=O)N=Nc1c(O)[nH]c2ccccc12
classification: inactive
//
compound: CC(O)C(NCNC(=O)C1=C(O)C2(O)C(=O)C3=C(O)c4c(O)cccc4C(C)(O)C3CC2C(N(C)C)C1=O)C(=O)O (centres undefined)
classification: inactive
//
compound: Cc1ccc(C(=O)C2C=C(c3ccc(C)cc3)SC3C=CCC32)cc1 (centres undefined)
classification: inactive
//
compound: COc1ccc(Nc2ccc([N+](=O)[O-])c3nonc23)cc1
classification: inactive
//
compound: OC1c2ccccc2CC12Cc1ccccc1C2 (centres undefined)
classification: inactive
//
compound: COc1ccc(N=N/C(=N/NC(=O)c2cc(Cl)ccc2C(=O)c2ccccc2)c2ccc(N(CCC#N)CCC#N)cc2C)cc1
classification: inactive
//
compound: CCOC(=O)c1[nH]c(CN(C)Cc2[nH]c(C(=O)OCC)c(C)c2C(=O)OCc2ccccc2)c(C(=O)OCc2ccccc2)c1C
classification: inactive
//
compound: Cc1ccc2c(c1)NC(=O)CC(c1ccccc1)=N2
classification: inactive
//
compound: CC(C)O[C@H]1N(C2CC(N=[N+]=[N-])C(CO)O2)C(=O)NC(=O)[C@]1(C)Br (some centres undefined)
classification: active
//
compound: CN1C(=N\S(=O)(=O)c2ccc(Cl)cc2)/C(=N/N=P(c2ccccc2)(c2ccccc2)c2ccccc2)c2ccccc21
classification: inactive
//
compound: Cc1cc2ncn(-c3nc4ccccc4nc3C(C#N)S(C)(=O)=O)c2cc1C (centres undefined)
classification: inactive

----------
System: CEM cells HIV-1 protection, formazan growth assay
Experiment: NCI AIDS Antiviral Assay
Protocol: The ability of compounds to protect human CEM cells from HIV-1 infection is measured as a screen for new compounds capable of inhibiting the HIV virus. Five concentrations of drug were tested on uninfected and infected cells and cell growth was measured using a soluble formazan assay. […] Compounds that provided at least 50% protection were retested. Compounds that provided at least 50% protection on retest were listed as moderately active. […]
pEC50: −log10 of the molar value.
List of pEC50 values.

compound: CC(=O)Nc1cc(Nc2cc(=O)[nH]c(=O)[nH]2)ccc1C
pEC50: < 3.70

compound: COc1c(OC)c(OC)c2c(=O)cc(-c3ccc4c(c3)OCO4)oc2c1OC
pEC50: < 3.70

compound: CNC(=O)NCCCCC(NC(C)=O)C(=O)NCc1ccccc1 (stereo not drawn)
pEC50: < 3.13

compound: Cc1ccc(SCC(CF)OCn2cnc3c(=O)[nH]c(N)nc32)cc1 (stereo not drawn)
pEC50: < 4.70

compound: Cc1cccc(CP(Cc2cccc(C)c2)CC2(Cp3c4ccccc4c4ccccc43)COC2)c1
pEC50: < 5.70

compound: COC(=O)C1=C(C(=O)OC)C(C(=O)OC)N2C=CC=CC2=C1C(=O)OC (stereo not drawn)
pEC50: < 3.70

compound: CCOc1ccc(NC(=S)N/C=C(/C#N)C(N)=O)cc1
pEC50: < 3.70

compound: CO/C(=N\N=C\c1cccc(C(F)(F)F)c1)c1ccncc1
pEC50: < 3.93

compound: O=c1[nH]c2cnn(-c3ccccc3)c2c(=O)n1OS(=O)(=O)c1ccccc1
pEC50: < 3.70

compound: ClC1(c2ccccc2)c2ccc(Br)cc2-c2cc(Br)ccc21
pEC50: < 3.70

compound: CC(=O)Oc1c(-c2ccccc2)[nH]c2cc([N+](=O)[O-])c(/C(Cl)=C/c3ccccc3)cc12
pEC50: < 5.20

compound: CC(C)(C)C1CCC2c3c([nH]c4ccccc34)C3C(=O)N(c4cccc([N+](=O)[O-])c4)C(=O)C3C2C1 (stereo not drawn)
pEC50: < 3.70

compound: CCOP(=O)(OCC)/C(C#N)=C/c1ccc(Oc2ccccc2)cc1
pEC50: < 4.69

compound: C1CCCCC2(CCCCCCCCC3(CCC1)SCCS3)SCCS2
pEC50: < 3.70

compound: COC(=O)CSC(=S)Nc1nnc(NC(=S)SCOC(C)=O)n1C(=S)SCC(=O)OC
pEC50: < 3.70

compound: COc1ccc2nc3ccccc3c(NCCN(C)CCCl)c2c1
pEC50: < 4.70

compound: C/C(=N\NC(=S)NCCCCNC(=S)N/N=C(\C)c1ccccn1)c1ccccc1
pEC50: < 3.70

compound: O=C1N(C2CCCCC2)C(=O)N1C1CCCCC1
pEC50: 5.08

compound: COC(=O)c1c2c(cc3c1CC1(Cc4ccc(C(C)=O)cc4C1)C3)CCC2 (stereo not drawn)
pEC50: < 3.70

compound: Cc1cc(Cl)ccc1NC(=O)C(=O)Cc1nc2ccc(C(=O)c3ccccc3)cc2[nH]c1=O
pEC50: < 4.11

compound: ClC1=NSSC1(Cl)Cl
pEC50: < 3.70

compound: C=C(C)[C@@H]1CC[C@]2(CO)CC[C@]3(C)[C@H](CC[C@@H]4[C@@]5(C)CC[C@H](O)C(C)(C)[C@@H]5CC[C@]43C)[C@@H]12
pEC50: 4.38

compound: c1ccc(N/N=C2\CC(c3ccccc3)Oc3ccccc32)cc1 (stereo not drawn)
pEC50: < 3.70

compound: C=C=C(Sc1ccccc1)C(C)(C)OC(C)=O
pEC50: < 4.30

compound: CCCCCCCCCCCCCC(=O)OCC(C[As](=O)(O)O)OC(=O)CCCCCCCCCCCCC (stereo not drawn)
pEC50: < 4.94

compound: CC1(O)c2ccccc2[P+](C)(c2ccccc2)c2ccccc21 (stereo not drawn)
pEC50: < 3.25

compound: COc1ccc(C(c2ccc3c(c2)OCO3)N2C(=O)CCC2C(=O)O)cc1 (stereo not drawn)
pEC50: < 3.70

compound: Cc1cc(C)nc(NC(=S)Nc2ccc(Cl)cc2)c1
pEC50: < 4.00

compound: CC1CC(=O)c2ccccc2O1 (stereo not drawn)
pEC50: < 3.70

compound: CC/C=C\C/C=C\C/C=C\C/C=C\CCC(=O)OC(COC(=O)CCCCCCC/C=C\C/C=C\C/C=C\CC)COC1OC(CO)C(O)C(O)C1O (stereo not drawn)
pEC50: < 4.42

compound: NS(=O)(=O)c1nnc(NC(=O)CCC(=O)O)s1
pEC50: < 3.70

compound: CNc1ccccc1S(=O)(=O)c1ccccc1C(F)(F)F
pEC50: < 3.70

compound: S=c1sc2nc(Cl)nc(Cl)c2s1
pEC50: < 3.70
